Target: human DLL4, full length, overexpressed on CHO or HEK293 cells (human, UniProt Q9NR61 27-685)
Test: cell-based or functional assay
Give measured IC50, DLL4/Notch1 reporter assay (luciferase; co-culture with HEK293-hDII4) for each item. Keep answers brief.
Kindly provide the numeric value in nM only, without the unit symbol.

# IC50, DLL4/Notch1 reporter assay (luciferase; co-culture with HEK293-hDII4) of DLLBII115A05 (VHH, also called 115A5; DLLBII115A5; not shown: C-terminal c-myc and His6 tags) VHH: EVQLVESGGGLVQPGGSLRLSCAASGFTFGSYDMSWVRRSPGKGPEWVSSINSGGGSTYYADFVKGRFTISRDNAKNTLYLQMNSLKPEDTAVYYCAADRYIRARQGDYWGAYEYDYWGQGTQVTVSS = 1740

# IC50, DLL4/Notch1 reporter assay (luciferase; co-culture with HEK293-hDII4) of DLLBII96C03 (VHH, also called 96CO3; 96C3; not shown: C-terminal c-myc and His6 tags) VHH: EVQLVESGGGLVQPGGSLRLSCAASGFTFGNYDMSWVRQAPGKGPEWVSAINSGGGDTYYADSVKGRFTISRDNAKNTLYLQMNSLKPEDTAVYYCATPRGWGPTGPHEYGYWGQGTQVTVSS = 5160

# IC50, DLL4/Notch1 reporter assay (luciferase; co-culture with HEK293-hDII4) of DLLBII104G01 (VHH, also called 104G1; DLLBII104G1; not shown: C-terminal c-myc and His6 tags) VHH: EVQLVESGGGLVQAGGSLRLSCAASGFTFDDYAIGWFRQAPGKEREGVSCISSSDGSTYYADSVKGRFTISSDNAKNTVYLQMNSLKPEDTAVYYCATAWCDSSWYRSFVGYWGQGTQVTVSS = 964

# IC50, DLL4/Notch1 reporter assay (luciferase; co-culture with HEK293-hDII4) of DLLBII101G08 (VHH, also called 101G8; DLLBII101G8; not shown: C-terminal c-myc and His6 tags) VHH: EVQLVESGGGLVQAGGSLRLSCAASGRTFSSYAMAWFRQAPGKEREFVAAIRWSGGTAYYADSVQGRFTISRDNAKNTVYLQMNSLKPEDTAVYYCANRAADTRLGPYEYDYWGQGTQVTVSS = 2760

# IC50, DLL4/Notch1 reporter assay (luciferase; co-culture with HEK293-hDII4) of DLLBII62C11 (VHH, not shown: C-terminal c-myc and His6 tags) VHH: EVQLMESGGGLVQPGGSLRLSCVAAGFTFSNYYMSWVRQAPGKGLEWVSVISPDGSNTYYADTVKGRFTISRGNAKNTLFLQMTGLKSEDAAVYYCARGSGSWGVHGQGTQVTVSS = 4660

# IC50, DLL4/Notch1 reporter assay (luciferase; co-culture with HEK293-hDII4) of DLLBII56A09 (VHH, also called 56A9; DLLBII56A9; not shown: C-terminal c-myc and His6 tags) VHH: EVQLVESGGGLVQPGGSLRLSCAASGFTFDDYAIGWFRQAPGKEPEGISCISSSGGITYYADSVKGRFTTSRDNAKNTVYLQMNSLKPEDTAVYYCATPGIAACRGIHYTGQGTQVTVSS = 540
